Target: EPHB2 (UniProt P29323)
Sequence (P29323 whole entry, looked up): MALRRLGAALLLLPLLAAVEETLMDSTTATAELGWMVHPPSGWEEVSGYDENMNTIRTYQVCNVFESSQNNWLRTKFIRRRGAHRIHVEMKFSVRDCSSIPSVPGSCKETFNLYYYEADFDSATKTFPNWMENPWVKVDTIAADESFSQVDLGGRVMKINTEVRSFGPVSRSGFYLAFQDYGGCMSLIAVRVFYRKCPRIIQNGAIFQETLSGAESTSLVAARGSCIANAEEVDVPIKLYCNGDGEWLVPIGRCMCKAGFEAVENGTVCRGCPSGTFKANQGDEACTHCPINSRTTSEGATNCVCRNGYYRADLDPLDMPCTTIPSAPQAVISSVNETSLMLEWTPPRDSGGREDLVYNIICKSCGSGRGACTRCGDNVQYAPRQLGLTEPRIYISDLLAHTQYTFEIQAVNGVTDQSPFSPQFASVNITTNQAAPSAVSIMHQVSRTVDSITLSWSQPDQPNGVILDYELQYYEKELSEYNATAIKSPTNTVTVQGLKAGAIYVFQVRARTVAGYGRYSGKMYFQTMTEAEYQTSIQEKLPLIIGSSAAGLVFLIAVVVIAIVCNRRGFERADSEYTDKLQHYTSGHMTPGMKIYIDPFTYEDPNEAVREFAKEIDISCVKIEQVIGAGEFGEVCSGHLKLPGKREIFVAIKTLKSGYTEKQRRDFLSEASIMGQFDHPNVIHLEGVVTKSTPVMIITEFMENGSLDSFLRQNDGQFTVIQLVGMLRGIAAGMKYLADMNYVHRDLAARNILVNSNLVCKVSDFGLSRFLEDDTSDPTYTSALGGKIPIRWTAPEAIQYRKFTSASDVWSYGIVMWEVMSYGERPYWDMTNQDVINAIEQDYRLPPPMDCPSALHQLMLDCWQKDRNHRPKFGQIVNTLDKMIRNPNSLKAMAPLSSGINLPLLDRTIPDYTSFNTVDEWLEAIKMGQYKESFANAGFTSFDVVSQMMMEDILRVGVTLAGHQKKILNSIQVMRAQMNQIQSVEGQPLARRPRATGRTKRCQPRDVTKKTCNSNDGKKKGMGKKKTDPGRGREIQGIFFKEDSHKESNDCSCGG
Test: phosphorylation enrichment, bacterial display (enrichment ratio); higher = better substrate or ligand; peptides without Tyr show the background;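 further: 11-residue human phosphosite peptides and single-mutation variants displayed on the E. coli surface, counted by deep sequencing, each peptide's frequency after selection divided by its frequency in the unselected input library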;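 further: frequency after pTyr selection over input frequency; kinase dosed for 20-30% of maximal phosphorylation in three min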
phosphorylation enrichment values, listed per item
// keep it numeric: no unit symbol after the value

{"polymerSequence": "FSMGCYEISLG [HMGCL_Y198_YF]", "observedValue": 1.01}
{"polymerSequence": "KKARAYRPGIE [FLNA_Y287_G288R]", "observedValue": 0.417}
{"polymerSequence": "EKMWSYMKSAE [GRIA3_Y705]", "observedValue": 0.4}
{"polymerSequence": "PEVCDYGLGGG [GSTO1_Y239_A236V]", "observedValue": 0.812}
{"polymerSequence": "KDGIGYISAAE [CALM2_Y100_N98I]", "observedValue": 0.424}
{"polymerSequence": "SHEELYKWFTS [DYNC1H1_Y3051]", "observedValue": 0.577}
{"polymerSequence": "RMSQRYRDVLQ [CYP1A2_Y72_G73R]", "observedValue": 0.719}
{"polymerSequence": "DSFATYFRRVL [H2BW1_Y84]", "observedValue": 0.677}
{"polymerSequence": "LIGRGYDDPEV [HSPA9_Y128_R127G]", "observedValue": 0.802}
{"polymerSequence": "RLDPVYFVAPA [LAMC2_Y250]", "observedValue": 4.85}

Prompt line: Missing value: phosphorylation enrichment, EPHB2 (UniProt P29323), entry HLWRIYFDITD [MMP27_Y307_YF] . Fill in?
Response line: 0.771

Prompt line: Missing value: phosphorylation enrichment, EPHB2 (UniProt P29323), entry IDAICYYRMEN [NPHS2_Y194] . Fill in?
Response line: 0.721

Prompt line: Missing value: phosphorylation enrichment, EPHB2 (UniProt P29323), entry LADKPYTFEDY [FXN_Y118] . Fill in?
Response line: 1.04

Prompt line: Missing value: phosphorylation enrichment, EPHB2 (UniProt P29323), entry KDLPNYNWNSF [KISS1_Y112] . Fill in?
Response line: 0.63

Prompt line: Missing value: phosphorylation enrichment, EPHB2 (UniProt P29323), entry DPEAAYTTRGG [EPHA3_Y779] . Fill in?
Response line: 0.385

---

Target: FGFR3 (UniProt P22607)
Sequence (P22607 whole entry, looked up): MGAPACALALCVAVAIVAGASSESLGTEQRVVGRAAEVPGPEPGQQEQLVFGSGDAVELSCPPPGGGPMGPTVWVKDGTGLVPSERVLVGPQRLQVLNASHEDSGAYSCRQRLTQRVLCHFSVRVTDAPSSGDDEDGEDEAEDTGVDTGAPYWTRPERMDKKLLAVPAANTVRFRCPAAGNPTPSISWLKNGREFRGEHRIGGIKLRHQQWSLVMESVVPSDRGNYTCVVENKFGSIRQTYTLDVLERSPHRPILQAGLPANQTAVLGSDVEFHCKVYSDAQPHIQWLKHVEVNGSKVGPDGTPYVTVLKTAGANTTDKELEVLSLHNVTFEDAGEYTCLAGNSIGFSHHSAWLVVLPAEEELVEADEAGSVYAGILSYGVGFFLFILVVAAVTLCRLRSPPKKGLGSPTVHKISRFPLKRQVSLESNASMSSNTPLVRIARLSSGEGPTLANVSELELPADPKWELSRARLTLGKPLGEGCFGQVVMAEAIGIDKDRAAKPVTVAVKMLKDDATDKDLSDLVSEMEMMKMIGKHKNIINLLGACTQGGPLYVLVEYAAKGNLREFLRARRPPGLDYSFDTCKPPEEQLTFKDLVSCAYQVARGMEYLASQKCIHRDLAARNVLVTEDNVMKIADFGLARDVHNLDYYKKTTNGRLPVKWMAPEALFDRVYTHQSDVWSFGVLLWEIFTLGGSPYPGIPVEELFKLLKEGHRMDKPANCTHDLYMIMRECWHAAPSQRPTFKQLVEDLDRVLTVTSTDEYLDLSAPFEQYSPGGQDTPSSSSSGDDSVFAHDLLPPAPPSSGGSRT
Experiment: phosphorylation enrichment, bacterial display (enrichment ratio); higher = better substrate or ligand; peptides without Tyr show the background
We use 0.6 as the dividing line for phosphorylation enrichment: on or above the line is y, below is n.

{"polymerSequence": "LLVVLNKYRCY [PSEN1_Y154_Y154N]", "class": "y"}
{"polymerSequence": "FGSSSYGGAGG [RPA2_Y14_YF]", "class": "n"}
{"polymerSequence": "NTTIHYNFMCN [TP53_Y234_C229N_YF]", "class": "y"}
{"polymerSequence": "TIWDSYTTNKV [GNB1_Y85_I80T]", "class": "y"}
{"polymerSequence": "TSPALYRLDLD [TRIL_Y352_A347T]", "class": "y"}

Prompt line: State whether the measured phosphorylation enrichment reaches 0.6, counting equality as reaching it, for EVTLTYATGIK [NFKB1_Y485_T489I]
Response line: y

Prompt line: State whether the measured phosphorylation enrichment reaches 0.6, counting equality as reaching it, for EADRKYEEVAH [TPM3_Y163_R168H]
Response line: y

Prompt line: State whether the measured phosphorylation enrichment reaches 0.6, counting equality as reaching it, for TAALWYIYSHT [ENG_Y612]
Response line: y

Prompt line: State whether the measured phosphorylation enrichment reaches 0.6, counting equality as reaching it, for AKRKNYAPVTM [CFAP47_Y557_A561T]
Response line: n

Prompt line: State whether the measured phosphorylation enrichment reaches 0.6, counting equality as reaching it, for KEINDYVEKGT [SERPINA1_Y184_Q180E]
Response line: y

Prompt line: State whether the measured phosphorylation enrichment reaches 0.6, counting equality as reaching it, for RMSQRYRDVLQ [CYP1A2_Y72_G73R]
Response line: n

Prompt line: State whether the measured phosphorylation enrichment reaches 0.6, counting equality as reaching it, for KKARAYRPGIE [FLNA_Y287_G288R]
Response line: n

---

Biological target: Jak2 (UniProt O60674)
Sequence (O60674 whole entry, looked up): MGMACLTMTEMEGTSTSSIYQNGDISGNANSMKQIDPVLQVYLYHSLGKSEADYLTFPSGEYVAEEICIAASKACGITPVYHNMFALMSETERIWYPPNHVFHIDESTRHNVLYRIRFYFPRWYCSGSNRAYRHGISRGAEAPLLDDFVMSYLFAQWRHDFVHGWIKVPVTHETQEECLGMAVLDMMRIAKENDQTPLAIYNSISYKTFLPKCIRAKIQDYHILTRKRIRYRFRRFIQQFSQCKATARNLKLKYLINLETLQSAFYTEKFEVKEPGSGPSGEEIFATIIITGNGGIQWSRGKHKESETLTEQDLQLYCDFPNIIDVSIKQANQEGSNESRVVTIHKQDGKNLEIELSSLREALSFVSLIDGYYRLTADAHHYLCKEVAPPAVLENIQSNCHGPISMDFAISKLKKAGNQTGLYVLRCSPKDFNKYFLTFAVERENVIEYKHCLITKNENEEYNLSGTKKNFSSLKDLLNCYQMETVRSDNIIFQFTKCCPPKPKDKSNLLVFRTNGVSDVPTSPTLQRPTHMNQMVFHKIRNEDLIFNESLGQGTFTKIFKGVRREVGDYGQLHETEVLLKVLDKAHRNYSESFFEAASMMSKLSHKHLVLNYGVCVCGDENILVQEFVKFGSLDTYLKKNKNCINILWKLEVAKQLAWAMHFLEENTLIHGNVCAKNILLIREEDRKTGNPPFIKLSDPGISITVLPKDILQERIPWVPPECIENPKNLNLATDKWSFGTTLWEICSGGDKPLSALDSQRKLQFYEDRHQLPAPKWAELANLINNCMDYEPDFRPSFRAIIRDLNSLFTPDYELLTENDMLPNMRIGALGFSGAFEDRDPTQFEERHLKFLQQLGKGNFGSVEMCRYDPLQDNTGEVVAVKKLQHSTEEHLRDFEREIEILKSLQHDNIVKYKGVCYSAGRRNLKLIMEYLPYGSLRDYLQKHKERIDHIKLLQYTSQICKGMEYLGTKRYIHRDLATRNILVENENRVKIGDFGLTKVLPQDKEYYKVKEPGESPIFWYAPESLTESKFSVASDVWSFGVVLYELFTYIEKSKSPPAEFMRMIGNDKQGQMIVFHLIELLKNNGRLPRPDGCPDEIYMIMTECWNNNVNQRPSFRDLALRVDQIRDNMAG
Test: phosphorylation enrichment, bacterial display (enrichment ratio); higher = better substrate or ligand; peptides without Tyr show the background
phosphorylation enrichment values, listed per item
// keep it numeric: no unit symbol after the value

Prompt line: What value of phosphorylation enrichment has been reported for the following sequence? PFSNSYENSLI [EPOR_Y489_P488S_YF]
Response line: 1.16

Prompt line: What value of phosphorylation enrichment has been reported for the following sequence? LKFAIYFEARE [LAMA2_Y1258_YF]
Response line: 1.1

Prompt line: What value of phosphorylation enrichment has been reported for the following sequence? YYLGKYLQEVL [KLB_Y910]
Response line: 1.3

Prompt line: What value of phosphorylation enrichment has been reported for the following sequence? CEHRGHLFLAI [TEK_Y897_Y897H_YF]
Response line: 0.888

Prompt line: What value of phosphorylation enrichment has been reported for the following sequence? KRISCYEARYQ [PFKFB3_Y194_S197R]
Response line: 0.735

Prompt line: What value of phosphorylation enrichment has been reported for the following sequence? TRSYDYMEGGD [FGF7_Y58]
Response line: 0.802

Prompt line: What value of phosphorylation enrichment has been reported for the following sequence? VEKEKYVSFIS [JMJD1C_Y596_M591V_YF]
Response line: 0.755

Prompt line: What value of phosphorylation enrichment has been reported for the following sequence? VEDPEYAVTQP [STOML2_Y124_L129P]
Response line: 1.32

Prompt line: What value of phosphorylation enrichment has been reported for the following sequence? YQLPYYNMVPS [BMPR1A_Y458]
Response line: 10.4

---

Molecular target: FGFR3 (UniProt P22607)
Assay: phosphorylation enrichment, bacterial display (enrichment ratio); higher = better substrate or ligand; peptides without Tyr show the background
measuredAttribute: phosphorylation enrichment
// keep it numeric: no unit symbol after the value

The cases that follow already have their phosphorylation enrichment on record.
{"polymerSequence": "MSPPGYKLVNG [GJA1_Y286_T290N]", "observedValue": 0.438}
{"polymerSequence": "EDGRLYAVKRS [PKMYT1_Y136]", "observedValue": 0.633}
{"polymerSequence": "NNFGNYNNQSS [HNRNPA1_Y318_D314N]", "observedValue": 0.708}

Prompt line: Missing value: phosphorylation enrichment, FGFR3 (UniProt P22607), entry PSSNLYFRCLT [CNGA3_Y168_W171C_YF] . Fill in?
Response line: 1.03

Prompt line: Missing value: phosphorylation enrichment, FGFR3 (UniProt P22607), entry NTGNFYDLFGG [PTPN11_Y63_D61N_YF] . Fill in?
Response line: 0.641

Prompt line: Missing value: phosphorylation enrichment, FGFR3 (UniProt P22607), entry KAIMTYVSSFY [ACTN4_Y260] . Fill in?
Response line: 0.719

Prompt line: Missing value: phosphorylation enrichment, FGFR3 (UniProt P22607), entry RSHLPYDVTPE [IQGAP3_Y1098] . Fill in?
Response line: 0.747

Prompt line: Missing value: phosphorylation enrichment, FGFR3 (UniProt P22607), entry YYLGKYLQEVL [KLB_Y910] . Fill in?
Response line: 2.92

---

Tested on: Fer (mouse)
Assay: phosphorylation enrichment, bacterial display (enrichment ratio); higher = better substrate or ligand; peptides without Tyr show the background
phosphorylation enrichment values, listed per item

The cases that follow already have their phosphorylation enrichment on record.
{"polymerSequence": "RLLRGYNQSAY [HLA-C_Y137_D138N]", "phosphorylation enrichment": 0.321}
{"polymerSequence": "ADEEEYEIIAA [FEStide_E_2014]", "phosphorylation enrichment": 0.73}
{"polymerSequence": "LIGTPYWMAPE [PAK5_Y608_V604I]", "phosphorylation enrichment": 0.917}
{"polymerSequence": "GLSDLYVKIHL [SYT2_Y309_P308L]", "phosphorylation enrichment": 0.705}
{"polymerSequence": "NTGDFYDLFGG [PTPN11_Y63_YF]", "phosphorylation enrichment": 1.82}

Prompt line: What value of phosphorylation enrichment has been reported for the following sequence? TKDTFHKQPMF [GBA_Y451_Y451H]
Response line: 0.249

Prompt line: What value of phosphorylation enrichment has been reported for the following sequence? VGGRIYTDDGL [PKLR_Y218_I219T]
Response line: 0.463

---

phosphorylation enrichment values, listed per item
Target: FGFR3 (UniProt P22607)
Assay: phosphorylation enrichment, bacterial display (enrichment ratio); higher = better substrate or ligand; peptides without Tyr show the background
// keep it numeric: no unit symbol after the value

The cases that follow already have their phosphorylation enrichment on record.
{"polymerSequence": "DELDKYSEVLK [TPM1_Y60_A63V]", "assaySystem": "FGFR3 (UniProt P22607)", "measuredAttribute": "phosphorylation enrichment", "observedValue": 0.923}
{"polymerSequence": "NGPDVYVLPLT [AATK_Y93]", "assaySystem": "FGFR3 (UniProt P22607)", "measuredAttribute": "phosphorylation enrichment", "observedValue": 0.613}

Prompt line: What value of phosphorylation enrichment has been reported for the following sequence? NPQKPYFIRLF [WAS_Y83_S82P_YF]
Response line: 0.637

Prompt line: What value of phosphorylation enrichment has been reported for the following sequence? SVEELYAIPPD [PEAK1_Y797]
Response line: 5.64

Prompt line: What value of phosphorylation enrichment has been reported for the following sequence? FAKSVYWDNTL [NUP107_Y296_E298D_YF]
Response line: 0.688

Prompt line: What value of phosphorylation enrichment has been reported for the following sequence? VTPVMYTYDEY [COL10A1_Y623_G618V]
Response line: 0.795
